Target under test: UniProt P29990
Assay type: functional, Thailand/16681/1984

{"Line notation": "NCc1cccc(NC(=O)c2c(C(F)(F)F)nc3n2CCCC3)c1", "IC50": "> 99.5 µM"}
{"Line notation": "O=C(O)c1cc(Cl)ccc1S(=O)(=O)N[C@H]1CCN(Cc2ccccc2)C(=O)C1", "IC50": "> 99.5 µM"}
{"Line notation": "CCn1c(=O)c(N2CC[C@H](c3nncs3)C2)nc2ccccc21", "IC50": "> 99.5 µM"}
{"Line notation": "COC1CN(C(=O)c2cc(Cl)ccc2NS(=O)(=O)c2ccc(Oc3ccccc3Cl)cc2)C1", "IC50": "> 99.5 µM"}
{"Line notation": "CNC(=O)[C@H](Nc1cccc(-c2nn[nH]n2)c1)c1cc(Cl)cc(NC(=O)OCc2ccccc2)c1", "IC50": "48.6 µM"}

###

Target under test: Genome polyprotein (dengue virus type 2)
Assay type: functional, Thailand/16681/1984
Readout kind: IC50

{"Line notation": "Cn1nnnc1-c1cccc(NC(=O)c2cc(Cl)cc(NC(=O)OCc3ccccc3)c2)c1", "Target under test": "Genome polyprotein (dengue virus type 2)", "Measurement": "> 99.5 µM"}
{"Line notation": "C=CC[C@H]1NCc2cc(N[C@H](C(=O)NC(C)C)c3cc(Cl)cc4[nH]ncc34)ccc21", "Target under test": "Genome polyprotein (dengue virus type 2)", "Measurement": "63.9 µM"}
{"Line notation": "COCCNC(=O)[C@H](Nc1cccc([C@H]2CCOC2)c1)c1cc(Cl)cc2[nH]ncc12", "Target under test": "Genome polyprotein (dengue virus type 2)", "Measurement": "> 99.5 µM"}

###

Target under test: Genome polyprotein (dengue virus type 2, UniProt P29990)
Sequence (P29990 1346-1475 limits assumed): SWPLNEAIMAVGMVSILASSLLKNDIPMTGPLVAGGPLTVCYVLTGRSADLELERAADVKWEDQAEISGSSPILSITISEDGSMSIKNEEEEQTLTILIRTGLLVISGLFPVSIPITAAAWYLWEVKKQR
Sequence (P29990 1476-2093 limits assumed): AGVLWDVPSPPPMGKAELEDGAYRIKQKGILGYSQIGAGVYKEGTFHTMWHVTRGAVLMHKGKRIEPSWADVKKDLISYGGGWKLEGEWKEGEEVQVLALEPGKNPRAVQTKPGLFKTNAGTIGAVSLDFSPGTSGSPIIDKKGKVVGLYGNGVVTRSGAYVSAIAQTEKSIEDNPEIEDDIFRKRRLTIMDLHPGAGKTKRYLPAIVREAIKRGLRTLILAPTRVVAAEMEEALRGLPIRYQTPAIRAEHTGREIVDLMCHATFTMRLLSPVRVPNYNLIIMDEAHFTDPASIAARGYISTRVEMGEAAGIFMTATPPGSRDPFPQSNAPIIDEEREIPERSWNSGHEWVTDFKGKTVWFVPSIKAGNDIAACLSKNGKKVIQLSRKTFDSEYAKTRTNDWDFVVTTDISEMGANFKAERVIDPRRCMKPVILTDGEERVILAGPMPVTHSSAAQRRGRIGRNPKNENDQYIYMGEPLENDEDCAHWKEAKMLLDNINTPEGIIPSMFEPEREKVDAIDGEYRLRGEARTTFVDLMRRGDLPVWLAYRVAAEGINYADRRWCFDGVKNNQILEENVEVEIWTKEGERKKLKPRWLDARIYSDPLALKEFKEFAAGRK
Format: functional, Thailand/16681/1984
Below is a list of entries, each paired with its recorded IC50 value.
Readout kind: IC50

{"Line notation": "O=C(Nc1ccc2c(c1)CNC2)c1cc(F)cc(-c2ccnc3c2CCO3)c1", "Target under test": "Genome polyprotein (dengue virus type 2, UniProt P29990)", "Measurement": "83.8 µM"}
{"Line notation": "CN1[C@@H]2CCC[C@H]1C[C@@H](NC(=O)C1CCN(c3ccc(C=O)cc3)CC1)C2", "Target under test": "Genome polyprotein (dengue virus type 2, UniProt P29990)", "Measurement": "98.7 µM"}
{"Line notation": "Cc1cc(NC(=O)c2cc(C3CC3)n(C)c2C)ccc1N1CCCC1=O", "Target under test": "Genome polyprotein (dengue virus type 2, UniProt P29990)", "Measurement": "> 99.5 µM"}
{"Line notation": "O=C(Nc1cc(Cl)cc([C@H](Nc2cccc(-c3nn[nH]n3)c2)C(=O)NC2CCOCC2)c1)OCc1ccccc1", "Target under test": "Genome polyprotein (dengue virus type 2, UniProt P29990)", "Measurement": "40.6 µM"}
{"Line notation": "CCc1ccccc1-c1ccc([C@@H](NC(=O)OCc2ccccc2)C(=O)Nc2cccc(CN)c2)cc1", "Target under test": "Genome polyprotein (dengue virus type 2, UniProt P29990)", "Measurement": "9.17 µM"}
{"Line notation": "O=C(Nc1ccc2c(c1)CNC2)c1ccc2ncccc2c1", "Target under test": "Genome polyprotein (dengue virus type 2, UniProt P29990)", "Measurement": "> 99.5 µM"}
{"Line notation": "N=C(N)NCCc1ccc(OC(=O)Nc2ccccc2)cc1", "Target under test": "Genome polyprotein (dengue virus type 2, UniProt P29990)", "Measurement": "> 99.5 µM"}
{"Line notation": "NCc1cccc(NC(=O)[C@@H](NC(=O)OCc2ccccc2)c2ccc(C(F)(F)F)cc2)c1", "Target under test": "Genome polyprotein (dengue virus type 2, UniProt P29990)", "Measurement": "64.3 µM"}
{"Line notation": "O=C(O)c1cccc(NC(=O)c2ccc3[nH]ccc3c2)c1", "Target under test": "Genome polyprotein (dengue virus type 2, UniProt P29990)", "Measurement": "> 99.5 µM"}
{"Line notation": "CS(=O)(=O)c1ccc(-c2cccc([C@H](NC(=O)OCc3ccccc3)C(=O)Nc3cccc(CN)c3)c2)cc1", "Target under test": "Genome polyprotein (dengue virus type 2, UniProt P29990)", "Measurement": "40 µM"}
{"Line notation": "NCCCc1ccnc(NC(=O)c2cnn3c2CCC3)c1", "Target under test": "Genome polyprotein (dengue virus type 2, UniProt P29990)", "Measurement": "> 99.5 µM"}
{"Line notation": "O=C1Cc2c(cccc2C(=O)Nc2ccc3[nH]nnc3c2)N1", "Target under test": "Genome polyprotein (dengue virus type 2, UniProt P29990)", "Measurement": "> 99.5 µM"}
{"Line notation": "Cc1cc(-c2cc(F)cc(C(=O)Nc3ccc4c(c3)CNC4)c2)[nH]n1", "Target under test": "Genome polyprotein (dengue virus type 2, UniProt P29990)", "Measurement": "> 99.5 µM"}
{"Line notation": "NCc1cccc(NC(=O)[C@@H](NC(=O)OCc2ccccc2)c2ccc(-c3ccncc3F)cc2)c1", "Target under test": "Genome polyprotein (dengue virus type 2, UniProt P29990)", "Measurement": "> 99.5 µM"}
{"Line notation": "N#C[C@H](Nc1ccc2c(c1)CNC2)c1cc(Cl)cc2c1OCC2", "Target under test": "Genome polyprotein (dengue virus type 2, UniProt P29990)", "Measurement": "> 99.5 µM"}
{"Line notation": "O=C(Nc1cc(Cl)cc(S(=O)(=O)Nc2cccc(-n3nn[nH]c3=O)c2)c1)OCc1ccccc1", "Target under test": "Genome polyprotein (dengue virus type 2, UniProt P29990)", "Measurement": "34.3 µM"}
{"Line notation": "CCn1c(=O)c(N2CC[C@H](N3CCCS3(=O)=O)C2)nc2ccccc21", "Target under test": "Genome polyprotein (dengue virus type 2, UniProt P29990)", "Measurement": "> 99.5 µM"}
{"Line notation": "CC(C)Oc1ccc(S(=O)(=O)Nc2ccc(Cl)cc2C(=O)O)cc1", "Target under test": "Genome polyprotein (dengue virus type 2, UniProt P29990)", "Measurement": "> 99.5 µM"}
{"Line notation": "N#C[C@H](Nc1ccc(CC(=O)O)cn1)c1cc(Cl)cc(C2CC2)c1", "Target under test": "Genome polyprotein (dengue virus type 2, UniProt P29990)", "Measurement": "> 99.5 µM"}
{"Line notation": "O=C1OCc2ccc(NC(=O)[C@H]3CCNC34CCCC4)cc21", "Target under test": "Genome polyprotein (dengue virus type 2, UniProt P29990)", "Measurement": "> 99.5 µM"}
